B1: CPEB3 Ribozyme (parent)
chain: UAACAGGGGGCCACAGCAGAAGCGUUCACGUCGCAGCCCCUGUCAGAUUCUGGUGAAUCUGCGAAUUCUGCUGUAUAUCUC

Variants of: B1
Assay: self-cleavage, relative activity (ratio to wild type); higher = more cleavage; in vitro, sequencing
For each of the variants below, state its self-cleavage.
Number only, please.

// query self-cleavage value for entry A18U U31A 0.3

Now this one: "C38U" 0.9

Now this one: A18G G24C 0.28

Now this one: A57C U80C 0.67

Now this one: C17A A21G 0.25

Now this one: A20G G46C 0.11

Now this one: A5G G55U 0.26

Now this one: C17G U31C 0.28

Now this one: C14U A21G 0.78

Now this one: A13U A64U 0.47

Now this one: U66C A75C 0.54

Now this one: A28G G46C 0.08

Now this one: G33U U43C 0.48

Now this one: G8A A75G 0.21

Now this one: U69A U80G 0.76

Now this one: A5U U69C 0.74

Now this one: A28U A47U 0.67

Now this one: U58C G61U 0.21

Now this one: A45C A47G 0.17

Now this one: U31C G61C 0.14

Now this one: G10C A64G 0.25

Now this one: C12A U31A 0.65

Now this one: A13G G33U 0.24

Now this one: A65G U80C 0.59

Now this one: U31C C62G 0.14

Now this one: U26C U41A 0.28

Now this one: U31G A64G 0.46

Now this one: U26C C27U 0.27

Now this one: G6A U54C 0.52

Now this one: C29U U66C 0.37

Now this one: G19C U41G 0.32

Now this one: A18C U72A 0.16

Now this one: A57U U74A 1.23

Now this one: A3U G6A 0.62

Now this one: G36A U80A 0.13

Now this one: A35U U80A 0.58

Now this one: A20U C40U 0.34

Now this one: C14A A45G 1.15

Now this one: A3G A57G 0.86

Now this one: C12U U31A 1.11

Now this one: G46U U58C 0.17

Now this one: U41G U67A 0.2

Now this one: C39U A75G 0.97

Now this one: G8A G30U 0.16

Now this one: A18U A77U 0.48

Now this one: A15G U80G 0.86
